Collected MIC values appear next to each entry.
tested on: carbapenemase producing K. pneumoniae; experiment: MIC by broth micro-dilution (CLSI), carbapenemase producing K. pneumoniae; type: cell-based, Klebsiella pneumoniae; details: Klebsiella pneumoniae, ATCCBAA1705, KPC-2 K. pneumoniae ATCC BAA-1705; read-out: MIC
Value expressed in µg/mL; do not type the unit.

>  <Item smiles>
C[C@@H](NC(=O)Cn1cnnn1)[C@H]1C(=O)N2C(C(=O)O)=C(S[C@@H]3CN[C@H](C(=O)N4C[C@H](N)[C@@H](O)C4)C3)[C@H](C)[C@H]12

>  <Unit text>
µg/mL

>  <Val>
2

$$$$
>  <Item smiles>
C[C@@H](NC(=O)Cn1cnnn1)[C@H]1C(=O)N2C(C(=O)O)=C(S[C@@H]3CN[C@H](C(=O)N4CCn5c(cnc5N)C4)C3)[C@H](C)[C@H]12

>  <Unit text>
µg/mL

>  <Val>
2

$$$$

Kindly review the next molecule as well.
## Input What does the data say about its MIC? Entry: `C[C@@H](NC(=O)[C@@H]1CS(=O)(=O)CN1)[C@H]1C(=O)N2C(C(=O)O)=C(S[C@@H]3CN[C@H](C(=O)N4CC[C@@H](N)C4)C3)[C@H](C)[C@H]12`
## Output 8

----------
system: carbapenemase producing K. pneumoniae; assay: MIC by broth micro-dilution (CLSI), carbapenemase producing K. pneumoniae; assay type: cell-based, Klebsiella pneumoniae; settings: Klebsiella pneumoniae, ATCCBAA1705, KPC-2 K. pneumoniae ATCC BAA-1705; read-out: MIC
Quantity kind: MIC (µg/mL)
Value expressed in µg/mL; do not type the unit.

>  <Molecule>
CONC(=O)CCNC(=O)[C@@H]1C[C@H](SC2=C(C(=O)O)N3C(=O)[C@H]([C@@H](C)NC(=O)C(F)F)[C@H]3[C@H]2C)CN1 [Example 115]

>  <Val>
8

$$$$
>  <Molecule>
C[C@@H](NC(=O)Cn1cnnn1)[C@H]1C(=O)N2C(C(=O)O)=C(S[C@@H]3CN[C@H](C(=O)N4CCC(N)C(F)C4)C3)[C@H](C)[C@H]12 (single isomer, unassigned) [Example 425]

>  <Val>
2

$$$$

## Input # value lookup — system carbapenemase producing K. pneumoniae, readout MIC, item C[C@@H](NC(=O)Cn1nnnc1C1CC1)[C@H]1C(=O)N2C(C(=O)O)=C(S[C@@H]3CN[C@H](C(=O)N4CC[C@@H](N)C4)C3)[C@H](C)[C@H]12 [Example 372]
## Output 8

## Input # value lookup — system carbapenemase producing K. pneumoniae, readout MIC, item C[C@@H](NC(=O)/C(=N\OC(C)(C)C(=O)O)c1csc(N)n1)[C@H]1C(=O)N2C(C(=O)O)=C(S[C@@H]3CN[C@H](C(=O)N4CC[C@@H](N)C4)C3)[C@H](C)[C@H]12 [Example 514]
## Output 16

## Input # value lookup — system carbapenemase producing K. pneumoniae, readout MIC, item C[C@@H](NC(=O)Cn1cnnn1)[C@H]1C(=O)N2C(C(=O)O)=C(S[C@@H]3CN[C@H](C(=O)N4CCC[C@@H](N)C4)C3)[C@H](C)[C@H]12 [Example 336]
## Output 4

----------
Collected MIC values appear next to each entry.
system: carbapenemase producing K. pneumoniae; assay: MIC by broth micro-dilution (CLSI), carbapenemase producing K. pneumoniae; type: cell-based, Klebsiella pneumoniae; details: Klebsiella pneumoniae, ATCCBAA1705, KPC-2 K. pneumoniae ATCC BAA-1705; read-out: MIC
Value expressed in µg/mL; do not type the unit.

Some solved cases for reference:
>  <Item smiles>
C[C@@H](NC(=O)Cc1nnc(C(F)(F)F)o1)[C@H]1C(=O)N2C(C(=O)O)=C(S[C@@H]3CN[C@H](C(=O)N4CC[C@@H](N)C4)C3)[C@H](C)[C@H]12

>  <Val>
32

$$$$
>  <Item smiles>
C[C@@H]1CN(C(=O)[C@@H]2C[C@H](SC3=C(C(=O)O)N4C(=O)[C@H]([C@@H](C)NC(=O)C(F)F)[C@H]4[C@H]3C)CN2)CCN1

>  <Val>
4

$$$$
>  <Item smiles>
C[C@@H](NC(=O)Cn1cnnn1)[C@H]1C(=O)N2C(C(=O)O)=C(S[C@@H]3CN[C@H](C(=O)N4CCC[C@H]4CN)C3)[C@H](C)[C@H]12

>  <Val>
4

$$$$
>  <Item smiles>
C[C@@H](NC(=O)[C@@H](N)Cn1cccn1)[C@H]1C(=O)N2C(C(=O)O)=C(S[C@@H]3CN[C@H](C(=O)N(C)C)C3)[C@H](C)[C@H]12

>  <Val>
32

$$$$

## Input What does the data say about its MIC? Entry: `C[C@@H](NC(=O)C(F)F)[C@H]1C(=O)N2C(C(=O)O)=C(S[C@@H]3CN[C@H](CNC(=O)N(C)C)C3)[C@H](C)[C@H]12`
## Output 4
